- System: Septoria tritici
- ASSAY TEXT: B-9. Septoria tritici in vitro cell test
- Assay type: cell-based
- MEASUREMENT CONDITIONS: Zymoseptoria tritici, 168 h; 20 ppm of active ingredient; 7 days incubation; liquid culture, absorbance; read-out: efficacy (inhibition of fungal growth)
Item-by-item account of inhibition at 20 ppm

Please review the following examples before continuing.
Cc1ccc(C(F)(F)CNC(=O)c2c(Oc3cccc(C4CC4)c3F)nnc3c2CCCC3)c(C)c1 = 90 to 100%
Cc1ccc(C(F)(F)CNC(=O)c2c(Oc3cccc(C(F)F)c3)cnc3ccccc23)c(C)c1 = 90 to 100%
Cc1ccc(CCNC(=O)c2c(Oc3cccc(C(F)(F)F)c3)cnc3c2CCC3)c(C)c1 = 90 to 100%
Cc1ccc2c(C(=O)NCC(F)(F)c3ccc(C)c(C)c3)c(Oc3cccc(C(F)(F)F)c3)nnc2c1 = 90 to 100%
Cc1cc(Br)ccc1C(F)(F)CNC(=O)c1c(Oc2cccc(C(F)(F)F)c2)nnc2c1COCC2 = 90 to 100%
Cc1cc(Br)ccc1C(F)(F)CNC(=O)c1c(Oc2cccc(Cl)c2)nnc2c1CCCC2 = 90 to 100%

Can you share its inhibition at 20 ppm? I mean this compound: `Cc1ccc(C(F)(F)CNC(=O)c2c(Oc3cccc(C(F)(F)F)c3)nnc3c2CCCC3)c(C)c1`
90 to 100%

Also `Cc1ccc(C(F)(F)CNC(=O)c2c(Oc3cccc(C(F)(F)F)c3)nnc3c2CCCC3)c(Cl)c1` ?
90 to 100%

---

- ASSAY TEXT: Measurement of Log P values by HPLC on reversed phase columns (EEC directive 79/831 Annex V.A8)
- Type: physicochemical
- MEASUREMENT CONDITIONS: reversed phase HPLC column, method [a]: LC-UV, acidic range, 0.1% formic acid in water and acetonitrile as eluent
QUANTITY NAME: chromatographic logP
API note: the answer field is a bare number with no unit suffix.

Please review the following examples before continuing.
Cc1cccc(Oc2nnc3ccccc3c2C(=O)N[C@@H](C)c2cccc(C(F)(F)F)c2)c1 (racemic) [I-020] = 3.79
Cc1ccc(C(F)(F)CNC(=O)c2c(Oc3cccc(C(F)F)c3)nnc3c2CCCC3)c(Cl)c1 [I-243] = 3.63
Cc1ccc([C@@H](F)CNC(=O)c2c(Oc3cccc(C(F)(F)F)c3)nnc3c2OCC(C)(C)CO3)c(C)c1 (racemic) [I-156] = 4.15

Can you share its chromatographic logP? I mean this molecule: O=C(NCC(F)(F)c1ccc(Br)cc1Cl)c1c(Oc2cccc(C(F)(F)F)c2)nnc2ccccc12 [I-021]
4.58

Also CON(CCc1ccc(Cl)cc1Cl)C(=O)c1c(Oc2cccc(C(F)(F)F)c2)nnc2ccccc12 [I-190] ?
5.03

Also CCOC(=O)c1c(Oc2cccc(C(F)(F)F)c2)nnc2cnccc12 [1-54] ?
3.51

Also O=C(O)c1c(Oc2cccc(Br)c2)cnc2ccccc12 [1-47] ?
2.48

Also Cc1ccc([C@@H](F)CNC(=O)c2c(Oc3cccc(C(F)(F)F)c3)nnc3c2OCC(C)(C)O3)c(C)c1 (racemic) [I-155] ?
3.91

---

- System: Alternaria alternata
- ASSAY TEXT: Alternaria alternata in vitro cell test
- Format: cell-based
- MEASUREMENT CONDITIONS: 120 h, 20 ppm of active ingredient, liquid culture, 5 days incubation, spectrometric measurement of mycelium growth, read-out: efficacy (inhibition of fungal growth)
Item-by-item account of inhibition at 20 ppm

Can you share its inhibition at 20 ppm? I mean this molecule: `O=C(N[C@H]1CCOc2ccccc21)c1c(Oc2cccc(C(F)(F)F)c2)nnc2ccccc12`
90 to 100%

Also `Cc1ccc(C(F)(F)CNC(=O)c2c(Oc3cccc(Cl)c3)nnc3ccccc23)c(C)c1` ?
90 to 100%

Also O=C(N[C@H]1CCCc2sc(C3CC3)nc21)c1c(Oc2cccc(C(F)(F)F)c2)nnc2ccccc12 (racemic) ?
70 to 79%

Also `Cc1ccc(C(F)(F)CNC(=O)c2c(Oc3cccc(C4CC4)c3F)nnc3c2CCCC3)c(C)c1` ?
90 to 100%

---

- ASSAY TEXT: Measurement of Log P values by HPLC on reversed phase columns (EEC directive 79/831 Annex V.A8)
- Format: physicochemical
- MEASUREMENT CONDITIONS: reversed phase HPLC column, method [a]: LC-UV, acidic range, 0.1% formic acid in water and acetonitrile as eluent
- Method: A-1.1. Measurement of Log P Values Measurement of Log P values as provided herein was performed according to EEC directive 79/831 Annex V.A8 by HPLC (High Performance Liquid Chromatography) on reversed phase columns with the following methods: ^[a] Log P value is determined by measurement of LC-UV, in an acidic range, with 0.1% formic acid in water and acetonitrile as eluent (linear gradient from 10% acetonitrile to 95% acetonitrile). ^[b] […]
Item-by-item account of chromatographic logP
API note: the answer field is a bare number with no unit suffix.

Please review the following examples before continuing.
O=C(NCCn1cc(Cl)cn1)c1c(Oc2cccc(C(F)(F)F)c2)nnc2ccccc12 [I-244] = 3
COc1cc([C@@H](F)CNC(=O)c2c(Oc3cccc(C(F)(F)F)c3)cnc3ccccc23)ccc1Cl (racemic) [I-058] = 4.05
O=C(O)c1c(Oc2cccc(C(F)(F)F)c2)nnc2cnccc12 [1-05] = 2.04
C[C@H](NC(=O)c1c(Oc2ccc(Cl)cc2)nnc2ccccc12)c1cccc(C(F)(F)F)c1 (racemic) [I-204] = 3.92
O=C(c1c(Oc2cccc(C(F)(F)F)c2)nnc2ccccc12)N(O)CCc1ccc(Cl)cc1 [I-167] = 3.84

Can you share its chromatographic logP? I mean this compound: O=C(C[C@H]1C[C@@]12CCc1cc(Br)ccc12)c1c(Oc2cccc(C(F)(F)F)c2)nnc2ccccc12 (mixture of isomers) [I-097]
4.74

Also Cc1ccc(C(F)(F)CNC(=O)c2c(Oc3cccc(C(F)(F)F)c3)nnc3cnccc23)c(C)c1 [I-162] ?
4.15

Also Cc1cc(Br)ccc1C(F)(F)CNC(=O)c1c(Oc2cccc(Cl)c2)nnc2c1CCCC2 [I-151] ?
4.17

Also COC(=O)c1c(Oc2cccc(C#N)c2)nnc2ccccc12 [1-08] ?
2.64

Also CCOC(=O)c1c(Oc2cccc(Br)c2F)nnc2ccccc12 [1-37] ?
4.02

Also N#Cc1ccc(CONC(=O)c2c(Oc3cccc(C(F)(F)F)c3)nnc3ccccc23)cc1 [I-088] ?
3.07

Also O=C(N[C@H]1CCOc2ccccc21)c1c(Oc2cccc(C(F)(F)F)c2)nnc2ccccc12 [I-172] ?
3.65

Also CC(C)Oc1ccc(CCNC(=O)c2c(Oc3cccc(C(F)(F)F)c3)nnc3ccccc23)cn1 [I-087] ?
3.63

---

- ASSAY TEXT: Measurement of Log P values by HPLC on reversed phase columns (EEC directive 79/831 Annex V.A8)
- Format: physicochemical
- MEASUREMENT CONDITIONS: reversed phase HPLC column, method [a]: LC-UV, acidic range, 0.1% formic acid in water and acetonitrile as eluent
Item-by-item account of chromatographic logP

Cc1cccc(Oc2cnc3ccccc3c2C(=O)NCC(F)(F)c2ccc(C)cc2C)c1 = 4.3

Can you share its chromatographic logP? I mean this compound: `C#Cc1cccc(Oc2cnc3ccccc3c2C(=O)NCC(F)(F)c2ccc(C)cc2C)c1`
4.13

Also `O=C(NCC(F)(F)c1ccc(Br)cc1Cl)c1c(Oc2cccc(Cl)c2F)nnc2c1CCCC2` ?
4.4

Also `Cc1ccc(C(F)(F)CNC(=O)c2c(Oc3cccc(C(F)(F)F)c3)nnc3c2CCC3)c(Cl)c1` ?
3.94

Also C[C@@H]1CC[C@H](NC(=O)c2c(Oc3cccc(C(F)(F)F)c3)nnc3ccccc23)c2ccccc21 (mixture of isomers) ?
4.42

Also `O=C(NCC(F)(F)c1ccc(Br)cc1Cl)c1c(Oc2cncc(C(F)(F)F)c2)nnc2ccccc12` ?
4.08

Also `Cc1cc(Cl)ccc1C(F)(F)CNC(=O)c1c(Oc2cccc(Cl)c2)nnc2c1CCCC2` ?
4.11

Also `O=C(NCC(F)(F)c1ccc(Br)cc1Cl)c1c(Oc2cccc(C(F)F)c2)nnc2ccccc12` ?
4.14

Also `N#Cc1cccc(Oc2nnc3ccccc3c2C(=O)NCC(F)(F)c2ccc(Br)cc2Cl)c1` ?
3.77

Also `Cc1ccc(C(F)(F)CNC(=O)c2c(Oc3cccc(C(F)(F)F)c3)nnc3cc(F)ccc23)c(Cl)c1` ?
4.66

Also `Cc1ccc(C(F)(F)CNC(=O)c2c(Oc3cccc(C4CC4)c3F)cnc3ccccc23)c(C)c1` ?
4.63

Also `CCN(CCc1ccccc1)C(=O)c1c(Oc2cccc(C(F)(F)F)c2)nnc2ccccc12` ?
4.28

Also `Cc1cc(Cl)ccc1C(F)(F)CNC(=O)c1c(Oc2cccc(C(F)(F)F)c2)nnc2c1COCC2` ?
3.85

Also `Cc1ccc(CCNC(=O)c2c(Oc3cccc(C(F)(F)F)c3)nnc3cnccc23)c(C)c1` ?
3.88

Also `O=C(NCC(F)(F)c1ccc(Br)cc1Cl)c1c(Oc2cccc(C(F)(F)F)c2)nnc2c1COCC2` ?
3.94

Also `Cc1cc(Cl)ccc1C(F)(F)CNC(=O)c1c(Oc2cccc(Cl)c2F)nnc2c1CCC2` ?
4

Also `Cc1ccc(C(F)(F)CNC(=O)c2c(Oc3cccc(C(F)(F)F)c3)nnc3cc(C)ccc23)c(Cl)c1` ?
4.7

Also `Cc1cc(Br)ccc1C(F)(F)CNC(=O)c1c(Oc2cccc(C(F)F)c2)nnc2c1CCCC2` ?
3.84

Also `Cc1ccc(CCNC(=O)c2c(Oc3cccc(C(F)(F)F)c3)cnc3ccccc23)c(C)c1` ?
4.17
